Reference source for all entries: PubChem BioAssay (Tox21)

molecular target: Acetylcholinesterase (Homo sapiens); experiment: Acetylcholinesterase (AChE) small molecule antagonists: colormetric cell-based qHTS assay (AID 1347395); details: SH-SY5Y cells AChE activity, colorimetric (Ellman); series mostly up to 115 µM; note: nearly all actives have a fitted effect of over 30% in size
Inconclusive results are not listed. The source made the active and inactive calls. Calls come from the whole dose curve.
Response enum: true (1) for active, false (0) for inactive

Reference set (3 entries):
# compound, experimental target, assigned category
rows = [
    ("c1ccc(-c2nn[nH]n2)cc1", "Acetylcholinesterase (Homo sapiens)", "false (0)"),
    ("O=C1CCC(=O)N1Cl", "Acetylcholinesterase (Homo sapiens)", "false (0)"),
    ("CCNC(=O)C(C)OC(=O)Nc1ccccc1 (stereo not drawn)", "Acetylcholinesterase (Homo sapiens)", "false (0)"),
]

Call for entry `O=C(O)c1cccc(C(F)(F)F)c1` :
false (0)

I'd appreciate the recorded outcome for `CN(C)c1ccc(C=O)cc1` from this test.
false (0)

Hi, do you know how `CCN(CC)CCc1nc(-c2ccccc2)no1` came out in this test?
false (0)

Query: recorded result category for `CCCCCCCCCCCCCCCCCC[N+](C)(C)C` in this test
false (0)

Test call, this compound: `CN(CCCN1c2ccccc2CCc2ccccc21)CC(=O)c1ccc(Cl)cc1`
false (0)

Hi team, can someone confirm the assay call for CC(CC1c2ccccc2CCc2ccccc21)CN(C)C (stereo not drawn) ?
false (0)
